Each recorded value in this set is attributed to paper PMC8398255.

System: S. aureus ATCC 25923 (Sa23)
Test: MIC, microdilution (CLSI)
Assay type: cell-based
Conditions: Staphylococcus aureus, ATCC25923; Sa23, antibiotic susceptible S. aureus ATCC 25923; n = 3; read-out: MIC
Each record here notes measured MIC.
Could you give me the number in µg/mL? Just the number is fine.

May I ask what MIC has been recorded for CC(C)(C)c1ccc(NCc2cn(-c3ccc(C(=O)O)cc3)nc2-c2cc(C(F)(F)F)cc(C(F)(F)F)c2)cc1 ?
1

Moving on to the next compound.
Need MIC, item O=C(O)c1ccc(-n2cc(CNc3ccc(Br)c(Cl)c3F)c(-c3cc(C(F)(F)F)cc(C(F)(F)F)c3)n2)cc1
2

---

Test system: S. epidermidis ATCC 700296 (Se)
Experiment: MIC, microdilution (CLSI)
Type: cell-based
Settings: Staphylococcus epidermidis, ATCC700296; Se, S. epidermidis ATCC 700296; n = 3; read-out: MIC
PROPERTY: MIC (µg/mL)
The response must be a number in µg/mL with no trailing unit.

// solved cases for MIC follow
May I ask what MIC has been recorded for CSc1ccc(NCc2cn(-c3ccc(C(=O)O)cc3)nc2-c2cc(C(F)(F)F)cc(C(F)(F)F)c2)cc1 ?
4

Name the reported MIC value associated with the compound CC(C)(C)c1ccc(NCc2cn(-c3ccc(C(=O)O)cc3)nc2-c2cc(C(F)(F)F)cc(C(F)(F)F)c2)cc1
1

Please look up its MIC: O=C(O)c1ccc(-n2cc(CNc3ccc(F)c(F)c3)c(-c3cc(C(F)(F)F)cc(C(F)(F)F)c3)n2)cc1
4

Continuing:
Which MIC value is on record for O=C(O)c1ccc(-n2cc(CNc3ccc(F)c(F)c3F)c(-c3cc(C(F)(F)F)cc(C(F)(F)F)c3)n2)cc1 ?
4

I have this compound here, O=C(O)c1ccc(-n2cc(CNc3ccc(F)c(C(F)(F)F)c3)c(-c3cc(C(F)(F)F)cc(C(F)(F)F)c3)n2)cc1 , and I need its recorded MIC.
2

For the compound O=C(O)c1ccc(-n2cc(CNc3ccc(Br)c(Cl)c3F)c(-c3cc(C(F)(F)F)cc(C(F)(F)F)c3)n2)cc1 , what MIC is on record?
2

Given the compound O=C(O)c1ccc(-n2cc(CNc3ccc(Cl)cc3)c(-c3cc(C(F)(F)F)cc(C(F)(F)F)c3)n2)cc1 , what is its reported MIC?
2

Which value of MIC has been reported for O=C(O)c1ccc(-n2cc(CNc3ccc(Oc4ccccc4)cc3)c(-c3cc(C(F)(F)F)cc(C(F)(F)F)c3)n2)cc1 in the records?
4

Endpoint output: MIC of O=C(O)c1ccc(-n2cc(CNc3ccc(F)cc3)c(-c3cc(C(F)(F)F)cc(C(F)(F)F)c3)n2)cc1 . Value?
4

---

Tested on: Gram-positive bacteria
Assay: MIC across the tested strains
Assay type: cell-based
Conditions: across the tested strains
List of MIC values.

Need MIC, item CSc1ccc(NCc2cn(-c3ccc(C(=O)O)cc3)nc2-c2cc(C(F)(F)F)cc(C(F)(F)F)c2)cc1
1 to 4 µg/mL

Can you share its MIC? I mean this compound: O=C(O)c1ccc(-n2cc(CNc3ccccc3)c(-c3cc(C(F)(F)F)cc(C(F)(F)F)c3)n2)cc1
≥ 2 µg/mL

# query: MIC of entry O=C(O)c1ccc(-n2cc(CNc3ccc(Cl)c(Cl)c3)c(-c3cc(C(F)(F)F)cc(C(F)(F)F)c3)n2)cc1
≥ 0.5 µg/mL

As a next step, examine the compound that follows.
Bench note: what MIC did O=C(O)c1ccc(-n2cc(CNc3cc(Cl)cc(Cl)c3)c(-c3cc(C(F)(F)F)cc(C(F)(F)F)c3)n2)cc1 show?
≥ 0.5 µg/mL
